target: SEQ ID NO 18, mutant of Zea mays bx9 glucosyl transferase (Zea mays, UniProt B4G072, A281K/A334K/F21Y/M279F/S117V); construct: His tag (C); made in house; assay: UDP-Glo glucosyl transferase assay, purified enzyme; format: biochemical; settings: herbicide mM: V 0.300, VI 0.250, VII 0.210; IV, VIII, XI, XXI, XX, XVIII, XVI, XV, XIV 0.200; others 1.000
Sequence (B4G072 whole entry F21Y/S117V/M279F/A281K/A334K): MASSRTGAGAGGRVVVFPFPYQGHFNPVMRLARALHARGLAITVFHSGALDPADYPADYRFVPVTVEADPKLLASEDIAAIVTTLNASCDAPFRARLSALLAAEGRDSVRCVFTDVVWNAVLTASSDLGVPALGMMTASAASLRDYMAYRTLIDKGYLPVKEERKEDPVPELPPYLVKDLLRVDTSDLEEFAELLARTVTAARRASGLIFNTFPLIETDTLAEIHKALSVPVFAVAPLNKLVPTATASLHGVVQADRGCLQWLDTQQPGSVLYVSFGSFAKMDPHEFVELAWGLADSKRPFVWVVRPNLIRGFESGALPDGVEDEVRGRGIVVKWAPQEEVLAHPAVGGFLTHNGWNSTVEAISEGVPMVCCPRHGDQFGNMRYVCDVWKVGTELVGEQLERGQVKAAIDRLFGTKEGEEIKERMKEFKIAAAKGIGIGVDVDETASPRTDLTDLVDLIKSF
Entries and their measured Activity follow.
assay-endpoint: Activity

>  <compound>
CC1C(O)N(c2cc(C(F)(F)F)c(Cl)cn2)C(=O)N1C (stereo not shown)

>  <assay-endpoint>
Activity

>  <recorded-value>
0.467 pmol/sec/pmol enzyme

$$$$
>  <compound>
Cc1cnc(N2C(=O)N(C)CC2O)cc1C(F)(F)F (stereo not shown)

>  <assay-endpoint>
Activity

>  <recorded-value>
0.898 pmol/sec/pmol enzyme

$$$$
>  <compound>
C[C@@H]1C(O)N(c2cc(C(C)(C)C)on2)C(=O)N1C (stereo partly shown)

>  <assay-endpoint>
Activity

>  <recorded-value>
0.087 pmol/sec/pmol enzyme

$$$$
>  <compound>
CN1CC(O)N(c2cc(C(C)(C)C)on2)C1=O (stereo not shown)

>  <assay-endpoint>
Activity

>  <recorded-value>
0.186 pmol/sec/pmol enzyme

$$$$
>  <compound>
CC1C(=O)N(c2cc(C(F)(F)F)n(C)n2)C(O)[C@@H]1C (stereo partly shown)

>  <assay-endpoint>
Activity

>  <recorded-value>
0.237 pmol/sec/pmol enzyme

$$$$
>  <compound>
CN1CC(O)N(c2cc(C(C)(C)C)c(Cl)nn2)C1=O (stereo not shown)

>  <assay-endpoint>
Activity

>  <recorded-value>
0.170 pmol/sec/pmol enzyme

$$$$
>  <compound>
CON1C(=O)N(c2cc(C(F)(F)F)c(Cl)cn2)C(O)C1C (stereo not shown)

>  <assay-endpoint>
Activity

>  <recorded-value>
1.524 pmol/sec/pmol enzyme

$$$$
>  <compound>
C[C@H]1C(=O)N(c2noc(C(C)(C)C)c2C#N)C(O)[C@@H]1C (stereo partly shown)

>  <assay-endpoint>
Activity

>  <recorded-value>
0.089 pmol/sec/pmol enzyme

$$$$
>  <compound>
C[C@@H]1C(O)N(c2noc(C(C)(C)C)c2C#N)C(=O)[C@@H]1C (stereo partly shown)

>  <assay-endpoint>
Activity

>  <recorded-value>
0.051 pmol/sec/pmol enzyme

$$$$
>  <compound>
C[C@@H]1C(=O)N(c2noc(C(C)(C)C)c2C#N)C(O)[C@H]1C (stereo partly shown)

>  <assay-endpoint>
Activity

>  <recorded-value>
0.051 pmol/sec/pmol enzyme

$$$$
